Assign IC50 to each entry below.
The figure you give is taken to be in nM; do not add the unit.

Query block: System Glucocorticoid receptor (Homo sapiens). Read-out IC50. Item CCC1(CC(O)(Cc2cc3ccncc3[nH]2)C(F)(F)F)CCCc2ccccc21 (stereo in doubt; 23D1E1) . Report value.
Result block: 8.91

Query block: Provide Glucocorticoid receptor (Homo sapiens) IC50 reading for CCC1(CC(O)(CNc2cccc3nc(C)ccc23)C(F)(F)F)CCCc2ccccc21 (stereo in doubt; 45D2) .
Result block: 18.6

Query block: Fill: IC50 (Glucocorticoid receptor (Homo sapiens)) for this compound CCC1(CC(O)(Cc2ccnc3ccccc23)C(F)(F)F)CCCc2ccccc21 (stereo in doubt; 33D1)
Result block: 15.1

Query block: Report IC50 from Glucocorticoid receptor (Homo sapiens) testing of CCC1(CC(O)(Cc2cc3c(C)cc(C#N)cc3[nH]2)C(F)(F)F)CCCc2ccccc21 (stereo in doubt; 21D1E2)
Result block: 38.9

Query block: Give IC50 only, for CCC1(CC(O)(Cc2cc3ccccc3[nH]2)C(F)(F)F)CCCc2ccccc21 (stereo in doubt; 20D1E1) , using Glucocorticoid receptor (Homo sapiens) data.
Result block: 14.1

Query block: Give the observed IC50 of CCC1(CC(O)(CNc2cccc3nc(C)ccc23)C(F)(F)F)CCCc2ccccc21 (stereo in doubt; 45D1E1) for Glucocorticoid receptor (Homo sapiens).
Result block: 14.8

Query block: Quote Glucocorticoid receptor (Homo sapiens) IC50 for entry CCC1(CC(O)(Cc2cc3ccccc3[nH]2)C(F)(F)F)CCCc2ccccc21 (stereo in doubt; 20D1) .
Result block: 31.6

Query block: Jot down IC50 (Glucocorticoid receptor (Homo sapiens)) of CC1(CC(O)(CNc2cccc3cnccc23)C(F)(F)F)CCCc2ccccc21 (stereo in doubt; 54D1E2) .
Result block: 8.71

Query block: Write down the reported IC50 (system: Glucocorticoid receptor (Homo sapiens)) of CCC1(CC(O)(CNc2cccc3nc(C)ccc23)C(F)(F)F)CCCc2ccccc21 (stereo in doubt; 45D2E1)
Sequence (P04150 whole entry): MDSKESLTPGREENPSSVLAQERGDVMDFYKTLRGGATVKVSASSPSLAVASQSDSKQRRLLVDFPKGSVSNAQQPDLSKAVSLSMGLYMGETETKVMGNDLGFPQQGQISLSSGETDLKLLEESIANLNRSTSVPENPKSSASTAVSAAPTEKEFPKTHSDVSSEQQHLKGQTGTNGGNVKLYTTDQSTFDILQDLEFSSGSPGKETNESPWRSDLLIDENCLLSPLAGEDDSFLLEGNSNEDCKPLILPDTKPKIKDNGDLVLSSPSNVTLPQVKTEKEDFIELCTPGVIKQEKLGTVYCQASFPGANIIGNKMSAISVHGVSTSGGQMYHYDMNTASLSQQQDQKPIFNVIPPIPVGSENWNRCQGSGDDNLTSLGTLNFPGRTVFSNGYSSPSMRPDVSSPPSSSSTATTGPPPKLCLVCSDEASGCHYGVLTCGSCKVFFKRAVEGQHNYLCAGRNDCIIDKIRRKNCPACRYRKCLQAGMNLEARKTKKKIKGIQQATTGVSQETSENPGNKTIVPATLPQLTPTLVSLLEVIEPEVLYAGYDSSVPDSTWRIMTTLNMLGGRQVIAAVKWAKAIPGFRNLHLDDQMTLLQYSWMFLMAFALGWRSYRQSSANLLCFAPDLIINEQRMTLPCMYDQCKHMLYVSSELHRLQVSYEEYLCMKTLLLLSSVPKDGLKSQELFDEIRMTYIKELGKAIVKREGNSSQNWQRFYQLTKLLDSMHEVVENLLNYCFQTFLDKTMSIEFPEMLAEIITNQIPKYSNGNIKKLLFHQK
Result block: 17.4

Query block: Provide IC50, tested on Glucocorticoid receptor (Homo sapiens), for CCC1(CC(O)(Cc2ccnc3ccccc23)C(F)(F)F)CCCc2ccccc21 (stereo in doubt; 33D1E1) .
Result block: 10

Query block: Look up and report measured IC50 (Glucocorticoid receptor (Homo sapiens)) for the following compound: CCC1(CC(O)(Cc2cc3ccncc3[nH]2)C(F)(F)F)CCCc2ccccc21 (stereo in doubt; 23D1)
Result block: 28.2

Query block: State IC50 on Glucocorticoid receptor (Homo sapiens). Entry: CCC1(CC(O)(Cc2ccnc3ccccc23)C(F)(F)F)CCCc2ccccc21 (stereo in doubt; 33D2)
Result block: 33.1

Query block: Report value: IC50, system: Glucocorticoid receptor (Homo sapiens), compound: Cc1ccc2c(NCC(O)(CC3(C)CCCc4ccccc43)C(F)(F)F)cccc2n1 (stereo in doubt; 55D1E1)
Result block: 5.01

Query block: Report its IC50 with Glucocorticoid receptor (Homo sapiens) as the test system: CCC1(CC(O)(CNc2cccc3cnccc23)C(F)(F)F)CCCc2ccccc21 (stereo in doubt; 49D1E2)
Result block: 10

Query block: Send back Glucocorticoid receptor (Homo sapiens) IC50 of CCC1(CC(O)(CNc2cccc3nc(C)ccc23)C(F)(F)F)CCCc2ccccc21 (stereo in doubt; 45D1) only.
Result block: 14.8
